# Test system: Mycobacterium tuberculosis Erdman (autoluminescent)
# assay-overview: GRinf, maximum normalised growth rate inhibition (three-drug combination) (unitless (-1 to 1)); higher = less effect (negative = killing)
# test-conditions: in vitro model: cholesterol-high 0.2 mM; time point: constant (~7 days, model-specific)
readout: GRinf

compound	number
COc1nc2ccc(Br)cc2cc1[C@@H](c1ccccc1)[C@@](O)(CCN(C)C)c1cccc2ccccc12 [bedaquiline] + CC(C)/N=c1\cc2n(-c3ccc(Cl)cc3)c3ccccc3nc-2cc1Nc1ccc(Cl)cc1 [clofazimine] + NNC(=O)c1ccncc1 [isoniazid]	-0.396
COc1nc2ccc(Br)cc2cc1[C@@H](c1ccccc1)[C@@](O)(CCN(C)C)c1cccc2ccccc12 [bedaquiline] + CC[C@@H](CO)NCCN[C@@H](CC)CO [ethambutol] + NC(=O)c1cnccn1 [pyrazinamide]	-0.425
